# assayRemarks: Mean serum concentrations in neonatal piglets after intramuscular or oral administration
# Format: in vivo
# experimentalContext: pig, po, 50 mg/kg, 2h

compound | concentration at 2 h
C/C(=C\C(=O)OCCCC(=NO)c1ccccc1)C[C@@H]1OC[C@H](C[C@@H]2O[C@H]2[C@@H](C)[C@H](C)O)[C@@H](O)[C@H]1O [Example 1, 4-Hydroxyimino-4-phenylbutyl monate A] | < 1000 ng/mL

* * *

Reported MIC values are given for each entry in this list.
# Test system: M. suipneumoniae TAM 6N
# assayRemarks: Anti-mycoplasmal activity in vitro MIC
# Format: cell-based
# experimentalContext: Mesomycoplasma hyopneumoniae, TAM6N, 144 h; M. suipneumoniae TAM 6N; Friis broth, 0.9% agarose, 6 days 37° C.; read-out: M.I.C.
measuredParameter: MIC (mg/L)

compound | systemTested | recordedMeasurement
C/C(=C\C(=O)OCc1cccc(C=NO)c1)C[C@@H]1OC[C@H](C[C@@H]2O[C@H]2[C@@H](C)[C@H](C)O)[C@@H](O)[C@H]1O [Example 8, m-Hydroxyiminomethylbenzyl monate A] | M. suipneumoniae TAM 6N | 0.5
CON=C(CCCOC(=O)/C=C(\C)C[C@@H]1OC[C@H](C[C@@H]2O[C@H]2[C@@H](C)[C@H](C)O)[C@@H](O)[C@H]1O)c1ccccc1 [Example 5, 4-Methoxyimino-4-phenylbutyl monate A] | M. suipneumoniae TAM 6N | 0.5
C/C(=C\C(=O)OC1CCC(=NO)CC1)C[C@@H]1OC[C@H](C[C@@H]2O[C@H]2[C@@H](C)[C@H](C)O)[C@@H](O)[C@H]1O (stereo partly shown) [Example 3, 4-Hydroxyiminocyclohexyl monate A] | M. suipneumoniae TAM 6N | 0.5
C/C(=C\C(=O)OCCCC(=NO)c1ccccc1)C[C@@H]1OC[C@H](C[C@@H]2O[C@H]2[C@@H](C)[C@H](C)O)[C@@H](O)[C@H]1O [Example 1, 4-Hydroxyimino-4-phenylbutyl monate A] | M. suipneumoniae TAM 6N | 0.25

Every entry's value here was drawn from patent US4362743A.
